Molecular target: panel of 442 kinases (Homo sapiens)
Construct: purchased Ambit Biosciences (scanMAXX KINOMEscan)
Sequence (P42680 1-631): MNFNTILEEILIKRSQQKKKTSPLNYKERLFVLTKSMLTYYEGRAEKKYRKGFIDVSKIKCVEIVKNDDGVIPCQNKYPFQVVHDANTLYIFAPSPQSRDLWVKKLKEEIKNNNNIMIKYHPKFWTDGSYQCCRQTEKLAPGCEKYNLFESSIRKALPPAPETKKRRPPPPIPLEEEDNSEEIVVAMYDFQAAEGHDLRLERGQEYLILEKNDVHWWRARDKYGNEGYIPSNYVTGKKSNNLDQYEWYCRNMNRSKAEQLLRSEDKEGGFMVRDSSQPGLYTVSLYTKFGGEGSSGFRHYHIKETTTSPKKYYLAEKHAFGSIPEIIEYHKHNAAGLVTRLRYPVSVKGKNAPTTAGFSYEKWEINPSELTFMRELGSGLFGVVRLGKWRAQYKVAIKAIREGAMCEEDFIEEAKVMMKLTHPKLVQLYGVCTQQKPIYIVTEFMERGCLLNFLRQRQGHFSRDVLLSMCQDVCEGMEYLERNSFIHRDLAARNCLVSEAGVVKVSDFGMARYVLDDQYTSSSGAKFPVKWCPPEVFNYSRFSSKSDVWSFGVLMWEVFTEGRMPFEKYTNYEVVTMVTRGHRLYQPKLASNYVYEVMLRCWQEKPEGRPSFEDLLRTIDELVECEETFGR
Assay: biochemical
Type: binding
Conditions: kinase TEC; 1 µM; read-out: TEC (% of control at 1 µM)

{"columns": ["GIVEN_SMILES", "UNIT_OF_MEASUREMENT", "remaining activity at 1 µM"],
 "data": [
  ["Nc1cc(C(F)(F)F)c(-c2cc(N3CCOCC3)nc(N3CCOCC3)n2)cn1", "%", 87],
  ["COc1ncc(-c2ccc3nccc(-c4ccnnc4)c3c2)cc1NS(=O)(=O)c1ccc(F)cc1F", "%", 100],
  ["Cn1c(=O)n(-c2ccc(C(C)(C)C#N)cc2)c2c3cc(-c4cnc5ccccc5c4)ccc3ncc21", "%", 96],
  ["FC(F)c1nc2ccccc2n1-c1nc(N2CCOCC2)nc(N2CCOCC2)n1", "%", 89]
]}
